Data origin, for the record: the supplement of paper PMC5908809

- Test system: normal NK cells expanded with K562-aAPC
- protocol description: percent inhibition of viability; higher = more inhibition
- condition: 72 h; IL-2 2.5 ng/mL; 1 nM
experimental endpoint: percent inhibition of viability (%)
Enter your answer as a number in %; do not include the unit.

Example compounds with recorded percent inhibition of viability:
1. Cc1sc2c(c1C)C(c1ccc(Cl)cc1)=N[C@@H](CC(=O)Nc1ccc(O)cc1)c1nnc(C)n1-2 [OTX015] (max concentration tested 10000 nM) : -2.53
2. COc1ncc(-c2ccc3nccc(-c4ccnnc4)c3c2)cc1NS(=O)(=O)c1ccc(F)cc1F [Omipalisib] (max concentration tested 1000 nM) : 3.67
3. COc1cc2c(NC3CCN(C(C)C)CC3)nc(C3CCCCC3)nc2cc1OCCCN1CCCC1 [UNC0638] (max concentration tested 10000 nM) : -0.44

// percent inhibition of viability value for C[C@@H]1C[C@H]2O[C@@H]2/C=C\C=C\C(=O)Cc2c(Cl)c(O)cc(O)c2C(=O)O1 [Radicicol] (max concentration tested 10000 nM) : -4.44
